Molecular target: T1, PUF4 RNA-binding domain (Saccharomyces cerevisiae, UniProt P25339 537-888)
T1 sequence: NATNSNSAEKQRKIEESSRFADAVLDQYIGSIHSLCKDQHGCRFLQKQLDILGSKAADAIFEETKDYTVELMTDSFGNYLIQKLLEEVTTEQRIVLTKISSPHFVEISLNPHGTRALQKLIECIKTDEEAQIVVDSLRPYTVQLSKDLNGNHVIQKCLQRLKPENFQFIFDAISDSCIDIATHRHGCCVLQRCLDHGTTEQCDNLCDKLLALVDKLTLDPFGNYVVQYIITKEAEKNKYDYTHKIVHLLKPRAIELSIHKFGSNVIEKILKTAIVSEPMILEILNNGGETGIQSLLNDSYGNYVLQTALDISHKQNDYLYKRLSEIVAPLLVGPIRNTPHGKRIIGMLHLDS
Test: Mg; RNA-MaP; 20 mM Na-HEPES pH 7.4, 30 mM KOAc, 0.75 mM MgCl2, 0.1% Tween-20, 5% glycerol, 0.1 mg/mL BSA, 2 mM DTT; 25 C; 0.0125-409.6 nM protein
Conditions: tags: N-His6-TEV cleaved; C-SNAP kept, Cy3B-labelled; label: tethered on chip by stalled RNA polymerase
Listing of entries alongside the reported pKd.
Keep in mind that pKd stands for -log10 of concentration in molar terms.

Example results:
Ic_S2_P4E.1_K4.1_C4.1_H4.1_A4.1_[A6G]_[T7C]_F4.1_[T8A]_[A9G]_T4.1 (ssRNA) RNA: UUUGAUUAAUAUGAUAUCGUUCUUUCUUGUAUGCAGUUCUUUCUCGAUAUCAUAUUAAUCUUU : 5.96
Ib_S4_P4E.1_K4.1_C4.1_H4.1_[G2A]_A4.1_[T7A]_F4.1_T4.1 (ssRNA) RNA: UUUGACAACUGAUCGUUCUUUCUUAUAUAAUAUUCUUUCUCGAUCAGUUGUCUUU : 7.12
UCUCUUUGUACGAACUCUCUU (ssRNA) [Ic_S1_P4E.1_K4.1_C4.1_H4.1_A4.1_[T5C]_[A6G]_[T7A]_F4.1_[T8A]_[A9C]_T4.1] : 6.01
Ic_S2_P5E.1_K5.1_C5.1_H5.1_A5.1_[T5C]_[T6G]_[A7C]_F5.1_[T8C]_[T9C]_T5.1 (ssRNA) RNA: UUUGAUUAAUAUGAUAUCGUUCUUUCUUGUACGCCCAUUCUUUCUCGAUAUCAUAUUAAUCUUU : 6.25

Task: If you can, please state the reported pKd value of Ic_S4_P4E.1_K4.1_C4.1_H4.1_A4.1_[T5C]_[A6G]_F4.1_[A9T]_T4.1 (ssRNA) RNA: UUUGACAACUGAUCGUUCUUUCUUGUACGUUUUUCUUUCUCGAUCAGUUGUCUUU .
Output: 7.92

Task: If you can, please state the reported pKd value of UCUCUUCUUGUAUAUUACCUCUCUU (ssRNA) [Id_ii_S1_P4E.2_K4.1_C4.2_H4.1_A4.1_F4.1_T4.2_[G10C]_[T11C]] .
Output: 9.13
